These data points were gathered from PubChem BioAssay (NCI).

- System: SF-539 CNS
- Assay Name: NCI-60 one-dose screen, 48 h
- Assay Setup: 10 µM unless noted
This is part of a sample that, as a whole, favours compounds with a hit. Of some 83,000 tested, about 20% had one in any assay. Activity calls are given as the source filed them. Rule for the calls: active = growth percent below 10; inactive = the rest.
Please reply with one of these outcomes: active, inactive

These recorded examples may help you get a feel for the data.
Chemical String	Label Class
COc1ccc2nc3ccccc3c(NCc3ccc(F)cc3)c2c1	active
C#CC#CC#CC#CC#CC#CC#CC#CC[C@H]1OC[C@H](COC(=O)O[C@@H](C(=O)O[C@H]2C[C@@]3(O)[C@@H](OC(=O)c4ccccc4)[C@@H]4[C@]5(OC(C)=O)CO[C@@H]5C[C@H](O)[C@@]4(C)C(=O)[C@H](OC(C)=O)C(=C2C)C3(C)C)[C@@H](NC(=O)c2ccccc2)c2ccccc2)O1	inactive

Now, please, on to the next compound.
*Q* Returns: the outcome recorded for O=C(NCc1ccccc1O)c1cccc2ccccc12 in this assay.
*A* inactive
